# Read-out: Cytochrome P450 3A4 (Homo sapiens) (UniProt P08684)
# Sequence (P08684 whole entry, looked up): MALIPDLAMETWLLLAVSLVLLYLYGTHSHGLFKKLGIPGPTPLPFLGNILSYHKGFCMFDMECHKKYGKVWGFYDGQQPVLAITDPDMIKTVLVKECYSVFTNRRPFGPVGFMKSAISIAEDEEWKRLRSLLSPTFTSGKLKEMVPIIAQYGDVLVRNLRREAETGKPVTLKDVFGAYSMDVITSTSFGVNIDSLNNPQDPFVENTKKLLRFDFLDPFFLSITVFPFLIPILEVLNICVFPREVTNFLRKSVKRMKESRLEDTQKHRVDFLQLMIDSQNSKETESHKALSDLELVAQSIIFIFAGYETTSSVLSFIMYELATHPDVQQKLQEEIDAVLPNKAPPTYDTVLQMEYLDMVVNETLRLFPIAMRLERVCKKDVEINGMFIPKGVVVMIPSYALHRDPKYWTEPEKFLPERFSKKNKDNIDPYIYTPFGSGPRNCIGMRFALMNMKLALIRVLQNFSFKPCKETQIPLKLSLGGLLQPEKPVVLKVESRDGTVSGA
# RUN DESCRIPTION: CLD_CYP3A4_48hr: CellzDirect (CLD) Gene Expression Assay for xenobiotic metabolism (CYP3A4) at 48 hours (AID 2283698)
Results filed as inconclusive are left out. Active and inactive are the calls of the source. How the source made its calls: active means hit-call score of the fitted dose curve at least 0.9, where 1 is the maximum; inconclusive means response in the unintended direction; inactive means score below 0.9.
// values below are reported AC50

COMPOUND: CCSC(=O)N(CC)C1CCCCC1
AC50: 0.000988 µM (active)
--
COMPOUND: Cc1ccccc1CO[C@@H]1C[C@@]2(C(C)C)CC[C@]1(C)O2
AC50: 10.4 µM (active)
--
COMPOUND: CCNc1nc(NC(C)C)nc(SC)n1
AC50: 5.88 µM (active)
--
COMPOUND: CCC(C)(CC)c1cc(NC(=O)c2c(OC)cccc2OC)on1
AC50: 0.126 µM (active)
